Target: Replicase polyprotein 1ab (Severe acute respiratory syndrome coronavirus 2, UniProt P0DTD1)
Experiment: Inhibition of SARS-CoV-2 3CL protease extracted from Escherichia coli BL21 (DE3) Rosetta cells using DabcylKNSTLQSGLRKE-Edan as substrate preincubated for 60 mins followed by substrate addition and measured after 20 mins by FRET assay
MEASURED ENDPOINT: pIC50
pIC50 is defined as minus the log10 of a concentration measured in mol/L.

QUERY: Look up pIC50: CCC(C(=O)Nc1cc(NC2CCOCC2)ccc1C)n1cc(Cl)cc2nc(SCc3ccc(F)cc3)nc1-2 (stereo unspecified)
RESULT: 6.28

----------
Target: Replicase polyprotein 1ab (Severe acute respiratory syndrome coronavirus 2, UniProt P0DTD1)
Test: Binding affinity to SARS-CoV-2 3CL protease assessed as dissociation constant by SPR analysis
MEASURED ENDPOINT: pKd
pKd here: minus log base 10 of the concentration, concentration in moles per litre.

QUERY: // query pKd value for entry CCC(C(=O)Nc1cc(NC2COC2)ccc1C)n1cccc2nc(SCc3ccc(F)cc3)nc1-2 (stereo unspecified)
RESULT: 5.85
